Data origin: ChEMBL document CHEMBL1159178

- Assayed Target: Cholecystokinin receptor type A (Rattus norvegicus)
- Sequence (P30551 whole entry): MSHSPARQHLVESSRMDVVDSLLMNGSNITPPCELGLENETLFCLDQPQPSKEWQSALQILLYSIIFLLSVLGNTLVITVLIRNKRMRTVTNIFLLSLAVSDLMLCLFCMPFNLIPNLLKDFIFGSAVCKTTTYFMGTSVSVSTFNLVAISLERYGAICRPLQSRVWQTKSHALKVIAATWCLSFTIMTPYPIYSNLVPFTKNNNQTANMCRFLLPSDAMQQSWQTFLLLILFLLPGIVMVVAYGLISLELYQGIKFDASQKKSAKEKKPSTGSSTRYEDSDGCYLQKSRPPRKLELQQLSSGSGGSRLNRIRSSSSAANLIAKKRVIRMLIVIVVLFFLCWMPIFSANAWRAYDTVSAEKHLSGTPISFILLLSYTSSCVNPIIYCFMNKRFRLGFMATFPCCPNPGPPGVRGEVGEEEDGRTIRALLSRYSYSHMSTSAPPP
- Procedure Details: Evaluated for in vitro binding affinity to cholecystokinin-A (CCK-A) receptor in homogenized rat pancreas using [125I]bolton hunter CCK-26-33 as radioligand; 690-850
Measurement Label: IC50 (nM)
# number only, unit nM dropped from output

Q. Please report IC50 for the following compound: O=C(NC(Cc1c[nH]c2ccccc12)C(=O)NC(CO)Cc1ccccc1)OC1C2CC3CC(C2)CC1C3 (stereo unspecified)
A. 780

###

- Assayed Target: Gastrin/cholecystokinin type B receptor (Mus musculus)
- Sequence (P56481 whole entry): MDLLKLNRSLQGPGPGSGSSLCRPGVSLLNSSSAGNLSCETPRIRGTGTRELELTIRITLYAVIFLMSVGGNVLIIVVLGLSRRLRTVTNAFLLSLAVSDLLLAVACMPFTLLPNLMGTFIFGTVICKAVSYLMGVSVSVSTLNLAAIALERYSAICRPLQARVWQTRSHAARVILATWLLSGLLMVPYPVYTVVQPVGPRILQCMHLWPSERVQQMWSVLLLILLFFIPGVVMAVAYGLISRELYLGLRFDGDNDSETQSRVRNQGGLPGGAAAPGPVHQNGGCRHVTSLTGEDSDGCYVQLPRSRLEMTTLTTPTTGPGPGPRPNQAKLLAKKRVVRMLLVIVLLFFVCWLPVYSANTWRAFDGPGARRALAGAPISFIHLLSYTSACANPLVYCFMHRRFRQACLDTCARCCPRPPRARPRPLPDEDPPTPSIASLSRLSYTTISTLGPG
- Procedure Details: Evaluated for in vitro binding affinity towards cholecystokinin-B (CCK-B) receptor in mouse cerebral cortex using [125I]bolton hunter CCK-26-33 as radioligand; 4.2-8.9
- Type: tissue-based
Measurement Label: pIC50
Note on pIC50: it is the negative log10 of concentration, concentration in mol/L.

Q. Please report pIC50 for the following compound: O=C(NC(Cc1c[nH]c2ccccc12)C(=O)NC(CO)Cc1ccccc1)OC1C2CC3CC(C2)CC1C3 (stereo unspecified)
A. 8.20
